system: MDA-MB-468 complex spheroids with HUVEC/MSC, viability; experiment: Anticancer human tumor MDA-MB-468 cell line growth inhibition; settings: second compound 0.316 µM; first compound 3.16 µM; stronger effect = lower value;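 also: spheroids exposed to agents for seven days; 100% = DMSO vehicle control viability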
readout_type: viability, T/C (%)
Respond numerically; units are % and should not be typed.

>>> reading("CC(C)c1c(-c2ccccc2)nc2c(C#N)c[nH]n2c1=O + NC1CCC(NC2CC2c2ccccc2)CC1")
102
>>> reading("O=C(c1cc(Cc2n[nH]c(=O)c3ccccc23)ccc1F)N1CCN(C(=O)C2CC2)CC1 + NC1CCC(NC2CC2c2ccccc2)CC1")
18.2
>>> reading("CC(C)c1c(-c2ccccc2)nc2c(C#N)c[nH]n2c1=O + NC1CC1c1ccc(-c2cccc(O)c2)cc1")
89.4
>>> reading("CC1COCCN1c1cc(C2(S(C)(=N)=O)CC2)nc(-c2ccnc3[nH]ccc23)n1 (configuration not stated) + NC1CCC(NC2CC2c2ccccc2)CC1")
21.2
>>> reading("COc1ccc([C@@H](O)c2cc(-c3ncnc4cc(N5CCOCC5)ccc34)c(F)cc2Cl)nn1 + NC1CCC(NC2CC2c2ccccc2)CC1")
33.6
>>> reading("CC1(C)CCC(CN2CCN(c3ccc(C(=O)NS(=O)(=O)c4ccc(NCC5CCOCC5)c([N+](=O)[O-])c4)c(Oc4cnc5[nH]ccc5c4)c3)CC2)=C(c2ccc(Cl)cc2)C1 + NC1CC1c1ccc(-c2cccc(O)c2)cc1")
30.9

## Input # query: viability, T/C | item CC1COCCN1c1cc(C2(S(C)(=N)=O)CC2)nc(-c2ccnc3[nH]ccc23)n1 (configuration not stated) + NC1CC1c1ccc(-c2cccc(O)c2)cc1 | system: MDA-MB-468 complex spheroids with HUVEC/MSC, viability
## Output 20.8

----------
test system: MDA-MB-468 complex spheroids with HUVEC/MSC, viability; test: Anticancer human tumor MDA-MB-468 cell line growth inhibition; conditions: second compound 0.316 µM; first compound 0.316 µM; stronger effect = lower value;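 also: spheroids exposed to agents for seven days; 100% = DMSO vehicle control viability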
The entries below come with measured viability, T/C values attached.
Respond numerically; units are % and should not be typed.

>>> reading("COc1cc(Nc2ncc3c(n2)-c2ccc(Cl)cc2C(c2c(F)cccc2OC)=NC3)ccc1C(=O)O + NC1CC1c1ccc(-c2cccc(O)c2)cc1")
3.01
>>> reading("CC(C)c1c(-c2ccccc2)nc2c(C#N)c[nH]n2c1=O + NC1CC1c1ccc(-c2cccc(O)c2)cc1")
92.5

## Input Would you kindly share the measured viability, T/C for COc1ccc([C@@H](O)c2cc(-c3ncnc4cc(N5CCOCC5)ccc34)c(F)cc2Cl)nn1 + NC1CCC(NC2CC2c2ccccc2)CC1 ?
## Output 71.7

## Input Would you kindly share the measured viability, T/C for CC1(C)CCC(CN2CCN(c3ccc(C(=O)NS(=O)(=O)c4ccc(NCC5CCOCC5)c([N+](=O)[O-])c4)c(Oc4cnc5[nH]ccc5c4)c3)CC2)=C(c2ccc(Cl)cc2)C1 + NC1CC1c1ccc(-c2cccc(O)c2)cc1 ?
## Output 94.4

## Input Would you kindly share the measured viability, T/C for COc1cc(Nc2ncc3c(n2)-c2ccc(Cl)cc2C(c2c(F)cccc2OC)=NC3)ccc1C(=O)O + NC1CCC(NC2CC2c2ccccc2)CC1 ?
## Output 7.02

## Input Would you kindly share the measured viability, T/C for O=C(C=Cn1cnc(-c2cc(C(F)(F)F)cc(C(F)(F)F)c2)n1)NNc1cnccn1 + NC1CCC(NC2CC2c2ccccc2)CC1 ?
## Output 7.44

## Input Would you kindly share the measured viability, T/C for O=C(c1cc(Cc2n[nH]c(=O)c3ccccc23)ccc1F)N1CCN(C(=O)C2CC2)CC1 + NC1CC1c1ccc(-c2cccc(O)c2)cc1 ?
## Output 76

## Input Would you kindly share the measured viability, T/C for O=C(C=Cn1cnc(-c2cc(C(F)(F)F)cc(C(F)(F)F)c2)n1)NNc1cnccn1 + NC1CC1c1ccc(-c2cccc(O)c2)cc1 ?
## Output 1.34

## Input Would you kindly share the measured viability, T/C for Nc1ncn(C2CC(O)C(CO)O2)c(=O)n1 (stereo not drawn) + NC1CC1c1ccc(-c2cccc(O)c2)cc1 ?
## Output 8.68

## Input Would you kindly share the measured viability, T/C for CC1(C)CCC(CN2CCN(c3ccc(C(=O)NS(=O)(=O)c4ccc(NCC5CCOCC5)c([N+](=O)[O-])c4)c(Oc4cnc5[nH]ccc5c4)c3)CC2)=C(c2ccc(Cl)cc2)C1 + NC1CCC(NC2CC2c2ccccc2)CC1 ?
## Output 128

## Input Would you kindly share the measured viability, T/C for CC1COCCN1c1cc(C2(S(C)(=N)=O)CC2)nc(-c2ccnc3[nH]ccc23)n1 (stereo not drawn) + NC1CC1c1ccc(-c2cccc(O)c2)cc1 ?
## Output 62.3

## Input Would you kindly share the measured viability, T/C for CC1COCCN1c1cc(-c2ccnn2C)c2ccnc(-c3ccn[nH]3)c2n1 (stereo not drawn) + NC1CC1c1ccc(-c2cccc(O)c2)cc1 ?
## Output 4.97

## Input Would you kindly share the measured viability, T/C for CC(C)c1c(-c2ccccc2)nc2c(C#N)c[nH]n2c1=O + NC1CCC(NC2CC2c2ccccc2)CC1 ?
## Output 84.3

## Input Would you kindly share the measured viability, T/C for CC1COCCN1c1cc(C2(S(C)(=N)=O)CC2)nc(-c2ccnc3[nH]ccc23)n1 (stereo not drawn) + NC1CCC(NC2CC2c2ccccc2)CC1 ?
## Output 55.8

## Input Would you kindly share the measured viability, T/C for COc1ccc([C@@H](O)c2cc(-c3ncnc4cc(N5CCOCC5)ccc34)c(F)cc2Cl)nn1 + NC1CC1c1ccc(-c2cccc(O)c2)cc1 ?
## Output 69.8

## Input Would you kindly share the measured viability, T/C for O=C(c1cc(Cc2n[nH]c(=O)c3ccccc23)ccc1F)N1CCN(C(=O)C2CC2)CC1 + NC1CCC(NC2CC2c2ccccc2)CC1 ?
## Output 71.4

## Input Would you kindly share the measured viability, T/C for Nc1ncn(C2CC(O)C(CO)O2)c(=O)n1 (stereo not drawn) + NC1CCC(NC2CC2c2ccccc2)CC1 ?
## Output 9.97

## Input Would you kindly share the measured viability, T/C for CC1COCCN1c1cc(-c2ccnn2C)c2ccnc(-c3ccn[nH]3)c2n1 (stereo not drawn) + NC1CCC(NC2CC2c2ccccc2)CC1 ?
## Output 16.5

----------
system: MDA-MB-468 complex spheroids with HUVEC/MSC, viability; assay: Anticancer human tumor MDA-MB-468 cell line growth inhibition; conditions: second compound 10 µM; first compound 0.01 µM; stronger effect = lower value;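 also: spheroids exposed to agents for seven days; 100% = DMSO vehicle control viability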
true (1) if viability, T/C is below 20%. false (0) if not; exact matches included in false (0).

Reference set (5 entries):
>>> answer_label("CC(C)CC(NC(=O)C(Cc1ccccc1)NC(=O)c1cnccn1)B(O)O (stereo unspecified) + NC1CC1c1ccc(-c2cccc(O)c2)cc1")
"true (1)"
>>> answer_label("CC(C)CC(NC(=O)C(Cc1ccccc1)NC(=O)c1cnccn1)B(O)O (stereo unspecified) + NC1CCC(NC2CC2c2ccccc2)CC1")
"true (1)"
>>> answer_label("COc1cc(Nc2ncc3c(n2)-c2ccc(Cl)cc2C(c2c(F)cccc2OC)=NC3)ccc1C(=O)O + NC1CCC(NC2CC2c2ccccc2)CC1")
"false (0)"
>>> answer_label("COc1cc(Nc2ncc3c(n2)-c2ccc(Cl)cc2C(c2c(F)cccc2OC)=NC3)ccc1C(=O)O + NC1CC1c1ccc(-c2cccc(O)c2)cc1")
"true (1)"
>>> answer_label("Nc1ncn(C2CC(O)C(CO)O2)c(=O)n1 (stereo unspecified) + NC1CCC(NC2CC2c2ccccc2)CC1")
"false (0)"

## Input Decide: viability, T/C of Cn1ncnc1C1c2n[nH]c(=O)c3cc(F)cc(c23)NC1c1ccc(F)cc1 (stereo unspecified) + NC1CC1c1ccc(-c2cccc(O)c2)cc1 strictly below 20%?
## Output false (0)

## Input Decide: viability, T/C of CC(C)CC(NC(=O)CNC(=O)c1cc(Cl)ccc1Cl)B1OC(=O)CC(CC(=O)O)(C(=O)O)O1 (stereo unspecified) + NC1CCC(NC2CC2c2ccccc2)CC1 strictly below 20%?
## Output true (1)

## Input Decide: viability, T/C of CC[C@@]1(O)C(=O)OCc2c1cc1n(c2=O)Cc2cc3c(CN(C)C)c(O)ccc3nc2-1 + NC1CC1c1ccc(-c2cccc(O)c2)cc1 strictly below 20%?
## Output true (1)

## Input Decide: viability, T/C of CC1COCCN1c1cc(-c2ccnn2C)c2ccnc(-c3ccn[nH]3)c2n1 (stereo unspecified) + NC1CCC(NC2CC2c2ccccc2)CC1 strictly below 20%?
## Output false (0)

## Input Decide: viability, T/C of CC1COCCN1c1cc(-c2ccnn2C)c2ccnc(-c3ccn[nH]3)c2n1 (stereo unspecified) + NC1CC1c1ccc(-c2cccc(O)c2)cc1 strictly below 20%?
## Output true (1)

## Input Decide: viability, T/C of CC[C@@]1(O)C(=O)OCc2c1cc1n(c2=O)Cc2cc3c(CN(C)C)c(O)ccc3nc2-1 + NC1CCC(NC2CC2c2ccccc2)CC1 strictly below 20%?
## Output true (1)

## Input Decide: viability, T/C of Nc1ncn(C2CC(O)C(CO)O2)c(=O)n1 (stereo unspecified) + NC1CC1c1ccc(-c2cccc(O)c2)cc1 strictly below 20%?
## Output false (0)

## Input Decide: viability, T/C of CC(C)CC(NC(=O)CNC(=O)c1cc(Cl)ccc1Cl)B1OC(=O)CC(CC(=O)O)(C(=O)O)O1 (stereo unspecified) + NC1CC1c1ccc(-c2cccc(O)c2)cc1 strictly below 20%?
## Output true (1)

## Input Decide: viability, T/C of Cn1ncnc1C1c2n[nH]c(=O)c3cc(F)cc(c23)NC1c1ccc(F)cc1 (stereo unspecified) + NC1CCC(NC2CC2c2ccccc2)CC1 strictly below 20%?
## Output false (0)

## Input Decide: viability, T/C of O=C(C=Cn1cnc(-c2cc(C(F)(F)F)cc(C(F)(F)F)c2)n1)NNc1cnccn1 + NC1CC1c1ccc(-c2cccc(O)c2)cc1 strictly below 20%?
## Output false (0)

## Input Decide: viability, T/C of O=C(C=Cn1cnc(-c2cc(C(F)(F)F)cc(C(F)(F)F)c2)n1)NNc1cnccn1 + NC1CCC(NC2CC2c2ccccc2)CC1 strictly below 20%?
## Output false (0)

FYI, the data here is from PubChem BioAssay AID1918954.
